System: S. aureus ATCC 29213
experiment_description: microbe, parasite or virus in culture
run_parameters: Staphylococcus aureus, ATCC29213, read-out: MIC values
Here the recorded MIC is given for each entry.
Field: numeric (µg/mL). Do not append units.

>  <compound>
CN(C)c1cc(NC(=O)CNC(C)(C)C)c(O)c2c1C[C@H]1C[C@H]3[C@H](N(C)C)C(O)=C(C(N)=O)C(=O)[C@@]3(O)C(O)=C1C2=O [Tigecycline]

>  <MIC [µg/mL]>
0.03

$$$$
>  <compound>
CNC(C)C1CCC(N)C(OC2C(N)CC(N)C(OC3OCC(C)(O)C(NC)C3O)C2O)O1 (centres unmarked) [Gentamicin]

>  <MIC [µg/mL]>
1

$$$$
>  <compound>
CCO/N=C(\C(=O)N[C@@H]1C(=O)N2C(C(=O)[O-])=C(Sc3nc(-c4cc[n+](C)cc4)cs3)CS[C@H]12)c1nsc(N)n1 [Ceftaroline]

>  <MIC [µg/mL]>
0.125

$$$$

Next compound, please.
Input line: Entry CC(=O)O[C@H]1C[C@@]2(C)[C@@H](C[C@@H](O)[C@H]3[C@@]4(C)CC[C@@H](O)[C@@H](C)[C@@H]4CC[C@@]32C)/C1=C(\CCC=C(C)C)C(=O)O [Fusidic acid] has what MIC?
Output line: 0.25
